Tested on: PC-9 (KRAS wild type human lung adenocarcinoma cell line)
assay comment: KRAS 3D-Cell Proliferation Assay, PC-9 (Example 503)
Assay type: cell-based
condition details: 168 h, PC-9 3D culture, 7 days, CellTiter-Glo 3D, read-out: Prolif PC9 3D ATP IC50
Answer each item with its documented pIC50.
pIC50 field: float, defined as -log10 of concentration (mol/L).

*Q* Fill in reported pIC50 for this entry: CCc1cccc2cc(O)cc(-c3nc4c5c(nc(OC[C@@]67CCCN6C[C@H](F)C7)nc5c3F)N3C[C@H]5CC[C@H](N5)[C@H]3CO4)c12
*A* 5.04

*Q* Fill in reported pIC50 for this entry: C#Cc1c(F)ccc2cc(O)cc(-c3nc4c5c(nc(OC[C@@]67CCCN6C[C@H](F)C7)nc5c3F)N3C[C@H]5CC[C@H](N5)[C@H]3[C@H](C)O4)c12
*A* 4.99

*Q* Fill in reported pIC50 for this entry: Cc1c(F)c(N)cc(-c2nc3c4c(nc(OC[C@]56CCN5CC(F)(F)C6)nc4c2F)N2C[C@H]4CC[C@H](N4)[C@H]2[C@H](C)O3)c1C(F)(F)F
*A* 5.10

*Q* Fill in reported pIC50 for this entry: CN1CCC2COc3nc(-c4cc(O)cc5cccc(F)c45)c(F)c4nc(OC[C@@]56CCCN5C[C@H](F)C6)nc(c34)N2CC1 (single isomer, unassigned)
*A* 5.63

*Q* Fill in reported pIC50 for this entry: C[C@@H]1Oc2nc(-c3cccc4cccc(Cl)c34)c(F)c3nc(OC[C@@]45CCCN4C[C@H](F)C5)nc(c23)N2C[C@H]3CC[C@H](N3)[C@@H]12
*A* 5.41

*Q* Fill in reported pIC50 for this entry: C[C@@H]1Oc2nc(-c3cc(N)c(F)cc3C(F)(F)F)c(F)c3nc(OC[C@@]45CCCN4C[C@H](F)C5)nc(c23)N2C[C@H]3CC[C@H](N3)[C@@H]12
*A* 5.21

*Q* Fill in reported pIC50 for this entry: C[C@@H]1Oc2nc(-c3cc(O)cc4ccccc34)c(F)c3nc(OC[C@]45CCN4CC(F)(F)C5)nc(c23)N2C[C@H]3CC[C@H](N3)[C@@H]12
*A* 4.96
